assay: total protein half-life in vivo (active degradation + dilution); higher = more stable protein; settings: E. coli NCM3722 delta-clpP; growth: N-lim chemostat; doubling time 6 h
Please provide measured total protein half-life in vivo for the entries that follow.
Write the value in h as a bare number.

Let me know recorded total protein half-life in vivo for MANPTVIKLQDGNVMPQLGLGVWQASNEEVITAIQKALEVGYRSIDTAAAYKNEEGVGKALKNASVNREELFITTKLWNDDHKRPREALLDSLKKLQLDYIDLYLMHWPVPAIDHYVEAWKGMIELQKEGLIKSIGVCNFQIHHLQRLIDETGVTPVINQIELHPLMQQRQLHAWNATHKIQTESWSPLAQGGKGVFDQKVIRDLADKYGKTPAQIVIRWHLDSGLVVIPKSVTPSRIAENFDVWDFRLDKDELGEIAKLDQGKRLGPDPDQFGG , thanks.
5.3

Tell me measured total protein half-life in vivo for MTITSLDGYRWLKNDIIRGNFQPDEKLRMSLLTSRYALGVGPLREALSQLVAERLVTVVNQKGYRVASMSEQELLDIFDARANMEAMLVSLAIARGGDEWEADVLAKAHLLSKLEACDASEKMLDEWDLRHQAFHTAIVAGCGSHYLLQMRERLFDLAARYRFIWLRRTVLSVEMLEDKHDQHQTLTAAVLARDTARASELMRQHLLTPIPIIQQAMAGN please.
2.81

Tell me total protein half-life in vivo reported for MKKLITANDIREAHARGEQAMSVVLRASIITPEAREVADLLGFTITECDESIPVTASVPASVPADKTESQRIRETIIAQLPEGQFTESLVAQLMEKVMKEKQSLEQGAMQPSFKSVTGKGGIKVIDGSSVKFGRFDGAEPHCVGLTDLVTGDDGSSMAAGFMQWENAFFPWTLNYDEIDMVLEGELHVRHEGQTMIAKAGDVMFIPKGSSIEFGTTSSVKFLYVAWPANWQSL
1.62

Tell us which total protein half-life in vivo value is on record for MNMMRIFYIGLSGVGMMFSSMASGNDAGGLQSPACGVVCDPYICVNSDGISPELTRKYLGEKAAENLQSLQGYDPSEFTFANGVFCDVKEKLCRDDRYFGVDGKRSGKINQTTTKMLFMCRE
5.4

Could you please provide reported total protein half-life in vivo for MPLPDFRLIRLLPLAALVLTACSVTTPKGPGKSPDSPQWRQHQQDVRNLNQYQTRGAFAYISDQQKVYARFFWQQTGQDRYRLLLTNPLGSTELELNAQPGNVQLVDNKGQRYTADDAEEMIGKLTGMPIPLNSLRQWILGLPGDATDYKLDDQYRLSEITYSQNGKNWKVVYGGYDTKTQPAMPANMELTDGGQRIKLKMDNWIVK ? Thanks!
6.43

Identify measured total protein half-life in vivo associated with MPEVQTDHPETAELSKPQLRMVDLNLLTVFDAVMQEQNITRAAHVLGMSQPAVSNAVARLKVMFNDELFVRYGRGIQPTARAFQLFGSVRQALQLVQNELPGSGFEPASSERVFHLCVCSPLDSILTSQIYNHIEQIAPNIHVMFKSSLNQNTEHQLRYQETEFVISYEDFHRPEFTSVPLFKDEMVLVASKNHPTIKGPLLKHDVYNEQHAAVSLDRFASFSQPWYDTVDKQASIAYQGMAMMSVLSVVSQTHLVAIAPRWLAEEFAESLELQVLPLPLKQNSRTCYLSWHEAAGRDKGHQWMEEQLVSICKR
1.07

====

Please provide measured total protein half-life in vivo for the entries that follow.
assay: total protein half-life in vivo (active degradation + dilution); higher = more stable protein; settings: wild type E. coli NCM3722; growth: C-lim chemostat; doubling time 6 h
API: value field is a number in h; no unit string.

# return recorded total protein half-life in vivo for entry MRTTSFAKVAALCGLLALSGCASKITQPDKYSGFLNNYSDLKETTSATGKPVLRWVDPSFDQSKYDSIVWNPITYYPVPKPSTQVGQKVLDKILNYTNTEMKEAIAQRKPLVTTAGPRSLIFRGAITGVDTSKEGLQFYEVVPVALVVAGTQMATGHRTMDTRLYFEGELIDAATNKPVIKVVRQGEGKDLNNESTPMAFENIKQVIDDMATDATMFDVNKK
6.02

Please report total protein half-life in vivo for the following sequence: MTDKLTSLRQYTTVVADTGDIAAMKLYQPQDATTNPSLILNAAQIPEYRKLIDDAVAWAKQQSNDRAQQIVDATDKLAVNIGLEILKLVPGRISTEVDARLSYDTEASIAKAKRLIKLYNDAGISNDRILIKLASTWQGIRAAEQLEKEGINCNLTLLFSFAQARACAEAGVFLISPFVGRILDWYKANTDKKEYAPAEDPGVVSVSEIYQYYKEHGYETVVMGASFRNIGEILELAGCDRLTIAPALLKELAESEGAIERKLSYTGEVKARPARITESEFLWQHNQDPMAVDKLAEGIRKFAIDQEKLEKMIGDLL [P0A870]
5.81

// fetch total protein half-life in vivo given entry MDKFDANRRKLLALGGVALGAAILPTPAFATLSTPRPRILTLNNLHTGESIKAEFFDGRGYIQEELAKLNHFFRDYRANKIKSIDPGLFDQLYRLQGLLGTRKPVQLISGYRSIDTNNELRARSRGVAKKSYHTKGQAMDFHIEGIALSNIRKAALSMRAGGVGYYPRSNFVHIDTGPARHW [P0AB06]
2.67

// fetch total protein half-life in vivo given entry MSAQKPGLHPRNRHHSRYDLATLCQVNPELRQFLTLTPAGEQSVDFANPLAVKALNKALLAHFYAVANWDIPDGFLCPPVPGRADYIHHLADLLAEASGTIPANASILDIGVGANCIYPLIGVHEYGWRFTGSETSSQALSSAQAIISSNPGLNRAIRLRRQKESGAIFNGIIHKNEQYDATLCNPPFHDSAAAARAGSERKRRNLGLNKDDALNFGGQQQELWCEGGEVTFIKKMIEESKGFAKQVMWFTSLVSRGENLPPLYRALTDVGAVKVVKKEMAQGQKQSRFIAWTFMNDEQRRRFVNRQR
4.83

Give total protein half-life in vivo for MSLTLTLTGTGGAQGVPAWGCECAACARARRSPQYRRQPCSGVVKFNDAITLIDAGLHDLADRWSPGSFQQFLLTHYHMDHVQGLFPLRWGVGDPIPVYGPPDEQGCDDLFKHPGLLDFSHTVEPFVVFDLQGLQVTPLPLNHSKLTFGYLLETAHSRVAWLSDTAGLPEKTLKFLRNNQPQVMVMDCSHPPRADAPRNHCDLNTVLALNQVIRSPRVILTHISHQFDAWLMENALPSGFEVGFDGMEIGVA
4.07

Consider the sequence MKAFNKLFSLVVASVLVFSLAGCGDKEESKKFSANLNGTEIAITYVYKGDKVLKQSSETKIQFASIGATTKEDAAKTLEPLSAKYKNIAGVEEKLTYTDTYAQENVTIDMEKVDFKALQGISGINVSAEDAKKGITMAQMELVMKAAGFKEVK . State its measured total protein half-life in vivo.
4.07

Please list total protein half-life in vivo recorded for the sequence MIKLSNITKVFHQGTRTIQALNNVSLHVPAGQIYGVIGASGAGKSTLIRCVNLLERPTEGSVLVDGQELTTLSESELTKARRQIGMIFQHFNLLSSRTVFGNVALPLELDNTPKDEVKRRVTELLSLVGLGDKHDSYPSNLSGGQKQRVAIARALASNPKVLLCDEATSALDPATTRSILELLKDINRRLGLTILLITHEMDVVKRICDCVAVISNGELIEQDTVSEVFSHPKTPLAQKFIQSTLHLDIPEDYQERLQAEPFTDCVPMLRLEFTGQSVDAPLLSETARRFNVNNNIISAQMDYAGGVKFGIMLTEMHGTQQDTQAAIAWLQEHHVKVEVLGYV
5.76

Look up and state reported total protein half-life in vivo for MQLNKVLKGLMIALPVMAIAACSSNKNASNDGSEGMLGAGTGMDANGGNGNMSSEEQARLQMQQLQQNNIVYFDLDKYDIRSDFAQMLDAHANFLRSNPSYKVTVEGHADERGTPEYNISLGERRANAVKMYLQGKGVSADQISIVSYGKEKPAVLGHDEAAYSKNRRAVLVY [P0A912]
5.6

Fill in total protein half-life in vivo for record MHPMLNIAVRAARKAGNLIAKNYETPDAVEASQKGSNDFVTNVDKAAEAVIIDTIRKSYPQHTIITEESGELEGTDQDVQWVIDPLDGTTNFIKRLPHFAVSIAVRIKGRTEVAVVYDPMRNELFTATRGQGAQLNGYRLRGSTARDLDGTILATGFPFKAKQYATTYINIVGKLFNECADFRRTGSAALDLAYVAAGRVDGFFEIGLRPWDFAAGELLVREAGGIVSDFTGGHNYMLTGNIVAGNPRVVKAMLANMRDELSDALKR [P0ADG4]
6.17

Check the records and state total protein half-life in vivo for MNIVVLISGNGSNLQAIIDACKTNKIKGTVRAVFSNKADAFGLERARQAGIATHTLIASAFDSREAYDRELIHEIDMYAPDVVVLAGFMRILSPAFVSHYAGRLLNIHPSLLPKYPGLHTHRQALENGDEEHGTSVHFVTDELDGGPVILQAKVPVFAGDSEDDITARVQTQEHAIYPLVISWFADGRLKMHENAAWLDGQRLPPQGYAADE
5.63

Fill in reported total protein half-life in vivo for this entry: MAEIGIFVGTMYGNSLLVAEEAEAILTAQGHKATVFEDPELSDWLPYQDKYVLVVTSTTGQGDLPDSIVPLFQGIKDSLGFQPNLRYGVIALGDSSYVNFCNGGKQFDALLQEQSAQRVGEMLLIDASENPEPETESNPWVEQWGTLLS
5.8
